test_system: T1, biotinylated human DLL3 protein expressed as a human IgG1 fusion protein (human, UniProt Q9NYJ7 27-492, limits assumed, biotinylated)
T1 sequence: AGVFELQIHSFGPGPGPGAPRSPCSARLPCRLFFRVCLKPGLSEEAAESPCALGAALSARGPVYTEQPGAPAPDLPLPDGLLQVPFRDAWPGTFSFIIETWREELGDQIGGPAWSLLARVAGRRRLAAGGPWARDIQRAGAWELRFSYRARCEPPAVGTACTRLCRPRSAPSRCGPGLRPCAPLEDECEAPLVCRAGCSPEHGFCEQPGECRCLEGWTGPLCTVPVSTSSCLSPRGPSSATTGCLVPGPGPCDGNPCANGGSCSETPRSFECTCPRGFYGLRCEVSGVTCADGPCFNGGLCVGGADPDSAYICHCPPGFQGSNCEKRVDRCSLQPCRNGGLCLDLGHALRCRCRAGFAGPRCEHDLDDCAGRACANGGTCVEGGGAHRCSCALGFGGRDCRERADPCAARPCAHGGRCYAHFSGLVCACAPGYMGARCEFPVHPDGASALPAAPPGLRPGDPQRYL
experiment_description: Octet BLI, single 50 nM
The reader will find reported pKd values listed item by item below.
Lab note: report pKd as minus log10 of the concentration in molar units, number only.

Answered examples (3):
1. 3D02 anti-DLL3 trispecific protein (other, not shown: linker 1808, anti-albumin sdAb, linker 1808, anti-CD3 fragment, His6 1819) EVQLVESGGGLVQPGGSLTLSCAASGSSVRFLSMAWYRQAPGKKRELVAGISRDGSTDYIDSVKGRFTISRDNAKNSVYLQMNSLRAEDTAVYYCYAYRWITRYTYWGQGTLVTVSS: 7.92
2. 4G09 anti-DLL3 trispecific protein (other, not shown: linker 1808, anti-albumin sdAb, linker 1808, anti-CD3 fragment, His6 1819) EVQLVESGGGLVQPGGSLTLSCAASGSRVSFLSMAWYRQAPGKKRELVAGISYDGSTDYIDSVKGRFTISRDNAKNSVYLQMNSLRAEDTAVYYCYAYRWTTRRTYWGQGTLVTVSS: 8.06
3. 3H09 anti-DLL3 trispecific protein (other, not shown: linker 1808, anti-albumin sdAb, linker 1808, anti-CD3 fragment, His6 1819) EVQLVESGGGLVQPGGSLTLSCAASKSSVSFLSMAWYRQAPGKKRELVAGISADGSTDYIDSVKGRFTISRDNAKNSVYLQMNSLRAEDTAVYYCYAYRWTTRATYWGQGTLVTVSS: 7.85

I am curious: what pKd value has been reported for 1D04 anti-DLL3 trispecific protein (other, not shown: linker 1808, anti-albumin sdAb, linker 1808, anti-CD3 fragment, His6 1819) EVQLVESGGGLVQPGGSLTLSCVASGSTSSKNAMGWYRRAPGKQRELVAGISSDGSKVYADSVKGRFTISRDNAKNSVYLQMNSLRAEDTAVYYCYYFRTVSGASMRYWGQGTLVTVSS ?
8.01
